Data provenance is patent US5646283A.

Property: inhibition at 10 µM; scope: individual compounds
# System: spleen cells
# Assay Procedure: Plaque Forming Cell Assay (inhibition rate of the antibody production)
# Format: cell-based, Balb/c strain mice
# Condition Context: Mus musculus; Concentration 10^-5 M; read-out: Inhibition rate (antibody production, PFC)

Compound	Experimental System	inhibition at 10 µM
O=C(O)c1c2c(nc3ccc(F)cc13)-c1ccc(-c3ccc(F)cc3)cc1CC2 [Compound 1]	spleen cells	98.1%

In plain terms, O=C(O)c1c2c(nc3ccc(F)cc13)-c1ccc(-c3c(F)cccc3F)cc1CC2 [Compound 3] has a documented inhibition at 10 µM of 99.7%

In plain terms, O=C(O)c1c2c(nc3ccc(F)cc13)-c1ccc(-c3ccc(F)cc3F)cc1CC2 [Compound 2] has a documented inhibition at 10 µM of 98%

In plain terms, O=C(O)c1c2c(nc3ccc(F)cc13)-c1cc(F)c(-c3ccccc3F)cc1CCC2 [Compound 13] has a documented inhibition at 10 µM of 95.2%

In plain terms, O=C(O)c1c2c(nc3ccc(F)cc13)-c1ccc(-c3ccccc3)cc1CCC2 [Compound 46] has a documented inhibition at 10 µM of 94.9%

In plain terms, O=C(O)c1c2c(nc3ccc(F)cc13)-c1ccc(-c3cccs3)cc1CC2 [Compound 4] has a documented inhibition at 10 µM of 99.8%

In plain terms, O=C(O)c1c2c(nc3ccc(F)cc13)-c1ccc(-c3ccccc3)cc1CC2 [Compound A1, reference compound] has a documented inhibition at 10 µM of 78.6%
